Biological target: T1, wild type SOD1 from human erythrocytes (physiological dimers) (human, UniProt P00441 2-154)
T1 construct: Purified from human erythrocytes (Sigma-Aldrich); homodimer; control incubated in Tris acetate buffer without oxidants; also called Native SOD1; native human SOD1 dimers
T1 sequence (P00441 2-154 limits assumed): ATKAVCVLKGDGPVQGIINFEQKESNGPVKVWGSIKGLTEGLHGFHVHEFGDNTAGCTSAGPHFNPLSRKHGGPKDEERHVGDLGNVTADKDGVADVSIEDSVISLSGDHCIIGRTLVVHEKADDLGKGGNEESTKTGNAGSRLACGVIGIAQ
Assay: direct ELISA, native human SOD1 dimers coated at 20 µg/ml
The entries below are paired with their reported EC50.

Consider the reported EC50 for these binders:
NI-204.34A3 (antibody, human IgG1, V domains shown) VH: EVQLVESGGGLVKPGGSLRVSCDVSGQRLSKAWMNWVRQTPTRGLEWVGLIKRDADGGTTEFAAPVEGRFTISRDDIQNTMTLHMTRLRVDDTGVYYCVAGDIGCIKENCRWGEGTTVTVSS VL: SYELTQPPSVSVSPGQTARITCSGDALPTKFAFWYQQKSGQAPVLVIYEDDKRPSGIPQRFSGSSSGTTATLTISGAQEEDDADYYCYSKDSTNVERVFGTGTKLSVL :: > 100 nM
NI-204.7G5 (antibody, human IgG1, V domains shown) VH: EVQLVESGGGVVQAGGSLRLSCVASGLTFSSYGMHWVRQAPGKGLEWVAVISYDGRSKFYADSVKGRFTISRDNSKNTLYLQMNSLRAEDAAVYYCANARVRDACSGTRCDKFGFYMDVWGKGTTVTVSS VL: SYVLTQPPSVSVSPGQTARITCSGDALPKKYAYWYQQKSGQAPVLVIYEDIKRPSGIPERFSGSSSGTMATLTISGAQVEDEGDYYCYSADRSGNRWAFGGGTKLTVL :: > 100 nM

query: Please indicate EC50 recorded for NI-204.12G7 (antibody, human IgG1, V domains shown) VH: EVQLVESGAEVKKPGASVTLSCKASGYTFTAYYIHWVRQAREQGLEWMGVINPSTGTTFYAQNFPDRVSVTRDTSTSTVFMELHNLKSEDTAVYYCARAISEHGSGSYSPYYWGQGTLVTVSS VL: SYVLTQPPSVSVSLGQMAAITCSGEALPKKYGYWYQQKPGQVPVLLIYRDVERPSGVPDRFSGSSSGTMVTLTISGVQAEDEADYYCLSADSSGTWVFGGGTKLTVL
result: > 40 nM
